FYI, the data here is from ChEMBL document CHEMBL1148435.

Recorded below: log10(Ki), system Mu-type opioid receptor (Homo sapiens, UniProt P35372).
# log10 transformed; quantity=Ki; unit=nM

[Q] For the molecule "CCN(CC)C(=O)c1ccc(/C(=C2\C[C@H]3CC[C@@H](C2)N3)c2ccccc2)cc1" , give its reported log10(Ki).
[A] 2.93

[Q] # return recorded log10(Ki) for entry "CC(C)N(C(=O)c1ccc(C(=C2CC3CCC(C2)N3CCc2ccccc2)c2ccccc2)cc1)C(C)C"
[A] 2.01

[Q] In one line, give reported log10(Ki) of the entry "O=C(c1ccc(C(=C2CC3CCC(C2)N3CCc2ccccc2)c2ccccc2)cc1)N1CCCC1" .
[A] 2.44

[Q] Note log10(Ki) for the molecule shown: "CCN(CC)C(=O)c1ccc(/C(=C2\C[C@H]3CC[C@@H](C2)N3CCc2ccccc2)c2ccccc2)cc1"
[A] 1.86

[Q] Read off the recorded log10(Ki) for "CCN(CC)C(=O)c1ccc(/C(=C2\C[C@H]3CC[C@@H](C2)N3C)c2ccccc2)cc1"
[A] 3.46

[Q] State its log10(Ki) for this molecule: "CCN(CC)C(=O)c1ccc(C(=C2CC3CCC(C2)N3CCc2ccccc2)c2cccc(OC)c2)cc1"
[A] 2.62

[Q] Item "CCN(CC)C(=O)c1ccc(C(=C2CC3CCC(C2)N3)c2ccc(O)cc2)cc1" : provide log10(Ki)
[A] 2.65

[Q] Give reported log10(Ki) value for "CCN(CC)C(=O)c1ccc(C(=C2CC3CCC(C2)N3CCc2cccs2)c2ccccc2)cc1"
[A] 3.11

[Q] Give a short answer stating reported log10(Ki) for "CCN(CC)C(=O)c1ccc(C(=C2CC3CCC(C2)N3Cc2ccc3c(c2)OCO3)c2ccccc2)cc1" .
[A] 1.35

[Q] # return recorded log10(Ki) for input "CCN(CC)C(=O)c1ccc(C(=C2CC3CCC(C2)N3CC(=O)c2ccccc2)c2ccccc2)cc1"
[A] 3.98

[Q] Input "C=CCN1[C@@H]2CC[C@H]1C/C(=C(/c1ccccc1)c1ccc(C(=O)N(CC)CC)cc1)C2" , output reported log10(Ki).
[A] 3.64

[Q] Consider the molecule "COCCN(CCOC)C(=O)c1ccc(C(=C2CC3CCC(C2)N3CCc2ccccc2)c2ccccc2)cc1" and give its recorded log10(Ki).
[A] 2.47

[Q] Look up and report measured log10(Ki) for this entry: "CCN(CC)C(=O)c1ccc(/C(=C2/C[C@H]3CC[C@@H](C2)N3C)c2ccccc2)cc1"
[A] 3.99
